Assay: Fraction unbound in rat brain at 10 mg/kg, ip
Format: ADME, organism-based
Parameters: dose 10 mg/kg, route intraperitoneal
EXPERIMENTAL READOUT: fraction unbound

Item O=C(c1ccc(Cn2cnc3ccccc32)cc1)N1CC[C@H](N2CCCC2)C1 has what recorded fraction unbound?
0.138

----------
Assay: Cmax in rat plasma at 30 mg/kg, ip
Format: ADME, organism-based
Design: dose 30 mg/kg, route intraperitoneal
EXPERIMENTAL READOUT: Cmax

Item O=C(c1ccc(Cn2ccc3cccc(Cl)c32)cc1)N1CC[C@H](N2CCCC2)C1 has what recorded Cmax?
1090 ng/mL

----------
Assay: Tmax in rat brain at 10 mg/kg, ip
Type: ADME, organism-based
Design: dose 10 mg/kg, route intraperitoneal
EXPERIMENTAL READOUT: Tmax (h)
Give just the numeric value; h need not be written.

Item O=C(c1ccc(Cn2cnc3ccccc32)cc1)N1CC[C@H](N2CCCC2)C1 has what recorded Tmax?
1

----------
Test: Permeability by PAMPA
Format: ADME
Details: read-out: permeability
Returns one of 1 or -1; 1 when Papp is >= 7 ×10⁻⁶ cm/s.

Is the recorded value of Papp equal to or greater than 7 ×10⁻⁶ cm/s for this molecule? CN(C)C1CCN(C(=O)c2ccc(Cn3c(-c4ccccc4)nc4ccccc43)cc2)C1 (configuration not stated)
-1

Is the recorded value of Papp equal to or greater than 7 ×10⁻⁶ cm/s for this molecule? O=C(c1ccc(Cn2ccc3cccc(Cl)c32)cc1)N1CC[C@H](N2CCCC2)C1
-1

Is the recorded value of Papp equal to or greater than 7 ×10⁻⁶ cm/s for this molecule? O=C(c1ccc(Cn2ccc3ccc(Cl)cc32)cc1)N1CC[C@H](N2CCCC2)C1
1

Is the recorded value of Papp equal to or greater than 7 ×10⁻⁶ cm/s for this molecule? Cc1nc2ccccc2n1Cc1ccc(C(=O)N2CC[C@H](N3CCCC3)C2)cc1
-1

Is the recorded value of Papp equal to or greater than 7 ×10⁻⁶ cm/s for this molecule? O=C(c1ccc(Cn2ccc3ccccc32)cc1)N1CC[C@H](N2CCCC2)C1
1

Is the recorded value of Papp equal to or greater than 7 ×10⁻⁶ cm/s for this molecule? O=C(c1ccc(Cn2ccc3cc(Cl)ccc32)cc1)N1CC[C@H](N2CCCC2)C1
1

Is the recorded value of Papp equal to or greater than 7 ×10⁻⁶ cm/s for this molecule? O=C(c1ccc(Cn2cnc3ccccc32)cc1)N1CC[C@H](N2CCCC2)C1
-1

----------
Assay: Half life in rat at 10 mg/kg, po
Format: ADME, organism-based
Set-up: dose 10 mg/kg, route oral
Conditions: in vivo
EXPERIMENTAL READOUT: half-life (h)
Give just the numeric value; h need not be written.

Item O=C(c1ccc(Cn2cnc3ccccc32)cc1)N1CC[C@H](N2CCCC2)C1 has what recorded half-life?
1.3

Item O=C(c1ccc(Cn2ccc3cccc(Cl)c32)cc1)N1CC[C@H](N2CCCC2)C1 has what recorded half-life?
1.9

----------
Assay: AUC in rat at 10 mg/kg, po
Format: ADME, organism-based
Set-up: dose 10 mg/kg, route oral
Details: plasma
EXPERIMENTAL READOUT: AUC (ng·h/mL)
Give just the numeric value; ng·h/mL need not be written.

Item O=C(c1ccc(Cn2cnc3ccccc32)cc1)N1CC[C@H](N2CCCC2)C1 has what recorded AUC?
2740

Item O=C(c1ccc(Cn2ccc3cccc(Cl)c32)cc1)N1CC[C@H](N2CCCC2)C1 has what recorded AUC?
63
